System: HCT-15 colon
test_name: NCI-60 one-dose screen, 48 h (100 = growth as untreated, 0 = no growth, -100 = all killed)
condition_notes: 10 µM unless noted
The panel holds about 83,000 compounds, 20% with a hit somewhere; the sample as a whole holds those more often.
The reader will find reported growth values listed item by item below.
readout_kind: growth (%)

CCN(CC)c1ccc(NC2=C(Cl)C(=O)c3nc(C)ccc3C2=O)cc1    -52.7
CCNC(=O)N1CCc2cc(OC)c(OCCc3ccc(OC)cc3)cc2C1c1ccc([N+](=O)[O-])cc1C (configuration not stated)    7.24
COc1cccc(/C=C(/C)c2ccc3cccc(OC)c3[o+]2)c1O    98
C=CCn1c(SCC(=O)Nc2ccc(C(=O)/C=C/c3cc(OC)c(OC)c(OC)c3)cc2)nnc1-c1c[nH]c2ccccc12    -20.3
O=C(CSc1nc2ccccc2c(=O)n1-c1ccccc1)Nc1cccc(C(=O)/C=C/c2ccccc2)c1    76.4
O=C(NCCN1CCCC1)c1ccc(-c2nc3ccc4[nH]ncc4c3c3c2CCCC3)cc1    26.1
CC(C)(O)c1cncc(-c2ccc3ncnc(NCc4ccccc4)c3c2)c1    103
Cc1cccc2c3c(sc12)C(c1ccc(Cl)cc1)c1c(nc(CC(=O)Nc2ccccc2)[nH]c1=O)O3 (configuration not stated)    47.5
C[C@H](CCC(=O)NCc1ccc(C(=O)Nc2ccccc2N)cc1)[C@H]1CC[C@H]2[C@@H]3[C@@H](O)C[C@@H]4C[C@H](O)CC[C@]4(C)[C@H]3CC[C@]12C    88.3
COc1ccc(NC(=O)CSc2nnc(-c3ccc4nc(-c5ccccc5)[nH]c4c3)o2)cc1    92.2
COc1cc(OC)cc(C(=O)Nc2cccc(C#Cc3cccc4[nH]nc(N)c34)c2)c1    31.1
COc1ccc(-c2nc3ccc(-c4nnc(SCC(=O)Nc5ccc(C(=O)/C=C/c6ccc(Cl)cc6)cc5)o4)cc3[nH]2)cc1    86.1

###

System: OVCAR-3 ovarian
test_name: NCI-60 one-dose screen, 48 h
condition_notes: 10 µM unless noted
The panel holds about 83,000 compounds, 20% with a hit somewhere; the sample as a whole holds those more often. The source made the active and inactive calls. Rule for the calls: active = growth percent below 10; inactive = the rest.
Classes used: active, inactive

COc1cccc(O)c1/C=C(/C)c1ccc2c(OC)cccc2[o+]1    inactive
COc1ccc(NCc2cn(-c3ccc(C(=O)O)cc3)nc2-c2cc(C(F)(F)F)cc(C(F)(F)F)c2)cc1    inactive
C=C1CC[C@@H]2[C@]3(C)COC(c4ccccc4)O[C@@H]3CC[C@@]2(C)[C@@H]1C/C=C1/C(=O)OC[C@H]1O (some centres undefined)    inactive
COc1ccc(/C=N/NC2=NC3C(S2)N(C)C(=O)N3C)cc1 (centres undefined)    active

###

Tested on: KM12 colon
test_name: NCI-60 one-dose screen, 48 h (100 = growth as untreated, 0 = no growth, -100 = all killed)
condition_notes: 10 µM unless noted
This is part of a sample that, as a whole, favours compounds with a hit. Of some 83,000 tested, about 20% had one in any assay.
readout_kind: growth (%)

CC(C)(C)c1ccc(C(=O)Nc2sc3c(c2C(N)=O)CC/C(=N\O)C3)cc1    6.97
COc1c(N2CC3CCCNC3C2)c(F)cc2c(=O)c(C(=O)N/N=C/c3ccc(N(C)C)cc3)cn(C3CC3)c12 (stereo not given)    74.5
COc1cc(-c2nn(C(C)(C)C)cc2-c2ccnc(NCCCNS(=O)(=O)c3cccc(F)c3)n2)ccc1Cl    80.3
COc1cc(Cn2cc3c(c2)-c2onc(CN4CCCC4)c2CC3)cc(OC)c1OC    90.3
COc1cccc2c1CN(C(=O)c1ccc(O)c(C(=O)N3Cc4ccc(OCCC[P+](c5ccccc5)(c5ccccc5)c5ccccc5)cc4C3)c1)C2    44.4
Nc1ncc(-c2ccc3ncnc(N4CCc5cc(F)c(Cl)cc54)c3c2)cn1    50.6
CCN(CC)c1ccc2c(c1)Oc1nc(N)c(C#N)c(N)c1C2Sc1ccc(F)cc1 (stereo not given)    -74.1
CCCCCc1ccc(S(=O)(=O)Nc2cccc(-c3csc(NC(=O)CN4CCN(CCO)CC4)n3)c2)cc1    54
C=CCN(C)S(=O)(=O)/N=C1\NC(=O)NC1=C(Cl)Cl    7.25
CNC(=O)c1cc(-n2ccc3cc(NC(=O)Nc4ccc(N5CCOCC5)c(C(F)(F)F)c4)ccc32)ccn1    7.44
CCN1CCN(Cc2ccc(C(=O)Nc3ccc(C)c(Oc4ccc(-c5[nH]nc6ncnc(N)c56)cc4)c3)cc2C(F)(F)F)CC1    21.2
O=C(NNc1nc2cc(F)c(F)cc2n2cccc12)c1cnccn1    22.3
COc1ccc(/C=C(\C#N)C(=O)N2c3ccccc3Sc3ccc(SC)cc32)cc1F    95.3
COc1ccccc1N1CCN(C2=CC(=O)C(C)=C(C)C2=O)CC1    105
COc1cc(C2N=C(NNc3ccccc3)NC(C)=C2C(C)=O)ccc1O (stereo not given)    95.6
CC(=O)Nc1cccc(Nc2nc(N[C@@H](C)c3ccccc3)c3ccccc3n2)c1    22.9
COc1c(N2CC3CCCNC3C2)c(F)cc2c(=O)c(C(=O)N/N=C/c3ccc(Br)cc3)cn(C3CC3)c12 (stereo not given)    97.3
CC(C)(C)CC(C)(C)n1nnnc1C(Nc1nccs1)c1cc2cccc3ccc4cccc1c4c32 (stereo not given)    99.5
CCOc1cccc(-c2nc3sccn3c2-c2ccnc(S(C)(=O)=O)n2)c1    87.6
CC1=NC2=NC(=O)/C(=C3/N=C(C)C=C(c4ccccc4)N3N)NN2C(c2ccccc2)=C1    98.4

###

System: IGROV1 ovarian
test_name: NCI-60 one-dose screen, 48 h (100 = growth as untreated, 0 = no growth, -100 = all killed)
condition_notes: 10 µM unless noted
Compounds without any hit were thinned out: in the full panel of roughly 83,000, 20% have a hit.
Catalogue of growth values
readout_kind: growth (%)

CC[C@H](CO)Nc1ccc2ncc(C#Cc3cncc(C(=O)Nc4ccc(CN5CCN(C)CC5)c(C(F)(F)F)c4)c3)n2n1    -33.1
CNC(=O)c1cc(Oc2ccc3nc(NC(=O)c4ccc(N5CCOCC5)c(C(F)(F)F)c4)sc3c2)ccn1    88.7
COc1cc2c(cc1OC)C(Sc1ccc(C)cc1)c1c(nc(N)c(C#N)c1N)O2 (centres undefined)    -72.8
CC(C)(C)c1ccc(C(=O)Nc2nc3ccc(O)cc3s2)cc1    47.7
CCCCCc1ccc(S(=O)(=O)Nc2cccc(-c3csc(NC(=O)CCCCCN4CCN(C)CC4)n3)c2)cc1    69.6
Cn1cc(-c2nnc(N)nc2-c2c[nH]c3ccc(F)cc23)c2cc(F)ccc21    35.7
C=C(C)[C@@H]1CC[C@]2(C(=O)NCCCCCN(CCC#N)CCC#N)CC[C@]3(C)[C@H](CC[C@@H]4[C@@]5(C)CCC(=O)C(C)(C)[C@@H]5CC[C@]43C)[C@@H]12    97.6
COc1ccccc1-n1cc(C#N)c(N)c1C(=O)c1ccc(Br)cc1    67.8
Nc1nc(Nc2ccccc2SSc2ccccc2Nc2nc(N)nc(-c3ccc4ccccc4c3)n2)nc(-c2ccc3ccccc3c2)n1    47.6

###

System: HS 578T breast
test_name: NCI-60 one-dose screen, 48 h
condition_notes: 10 µM unless noted
About 83,000 compounds went through this panel and 20% of them were active in at least one assay; those are over-represented in the sample as a whole. The source made the active and inactive calls. Rule for the calls: active = growth percent below 10; inactive = the rest.
Possible outcomes: active, inactive

COc1cc2nc(Cl)nc(Nc3cccc(C4=Nc5c(N)nc(N)nc5NC(c5ccc(F)cc5)C4)c3)c2cc1OC (configuration not stated)    inactive
c1n[nH]cc1-c1nc2ccc3[nH]ncc3c2c2c1CCCC2    active
CNC1CCc2c(sc(NC(=O)c3ccc(C(C)(C)C)cc3)c2C(N)=O)C1 (configuration not stated)    inactive
Nc1nc(N)c2c(n1)NC(c1ccc(C(F)(F)F)cc1)CC(c1ccc(Nc3nc(NCCO)nc(N4CCOCC4)n3)cc1)=N2 (configuration not stated)    inactive
Cc1ccc2c(c1)C(=O)/C(=C/c1cccc(F)c1)S2    inactive
CCNC(=O)N1CCc2cc(OC)c(OCCc3ccc(OC)cc3)cc2C1c1ccc(Cl)cc1C (configuration not stated)    active
Cc1ccc(-n2cc(/C=C/C(=O)c3ccc(O)cc3)c(-c3ccc(S(C)(=O)=O)cc3)n2)cc1    inactive

###

Test system: SR leukemia
test_name: NCI-60 one-dose screen, 48 h (100 = growth as untreated, 0 = no growth, -100 = all killed)
condition_notes: 10 µM unless noted
Compounds without any hit were thinned out: in the full panel of roughly 83,000, 20% have a hit.
Reported growth by item:
readout_kind: growth (%)

c1ccc(C(c2nc3ncncc3[nH]2)N2CSc3nc4ccccc4n3C2)cc1 (centres undefined)    111
O=C1C(c2ccccc2)=C(N2CCc3ccccc32)OC1(Cl)Cl    17.5
CCCn1cnc2c(c1=N)C(c1ccc(F)cc1)c1sc3c(C)cccc3c1O2 (centres undefined)    8.4
O=C(Cn1cc[n+](CC(=O)c2ccc(-c3ccccc3)cc2)c1)Nc1cccc2cccnc12    53.9
Clc1ccc(N/N=c2/oc3ccccc3cc2-c2cc3ccccc3[nH]2)cc1    90.8
NS(=O)(=O)c1ccc(Nc2nc(SCC(=O)c3ccc(Cl)cc3)nc3c2CCCC3)cc1    26.9
O=C1Nc2ccccc2/C1=C/c1ccc(COCC2CO2)n1-c1ccc(O)cc1 (centres undefined)    100
COc1cc(/C=C2\C(=O)Nc3cc(Cl)ccc32)ccc1OCc1ccc(F)cc1    97.5
O=S(=O)(NCCCNc1nccc(-c2[nH]c(-c3ccccc3)nc2-c2ccc(Cl)c(O)c2)n1)c1ccc(Br)cc1    15.3
C=C1CC[C@@H]2[C@]3(C)COC(c4ccccc4)O[C@@H]3CC[C@@]2(C)[C@@H]1C/C=C1/C(=O)OC[C@H]1O (some centres undefined)    36.9
Cc1ccc(C(=O)NN2C(=O)/C(=C/C=C/c3ccco3)SC2=S)cc1    84.5
COc1ccc2c(c1)c(-c1cc(N)n3nc(-c4cn(C)c5ccc(OC)cc45)cc3n1)cn2C    -12.2
C=CCn1c(-c2nc3ccc(C(=C(C#N)C#N)c4ccccc4)cc3[nH]2)cc2cc(Br)ccc21    50.5
CC1(C)CC[C@]2(C(=O)N3CCOCC3)CC[C@]3(C)C(=CC[C@@H]4[C@@]5(C)C/C(=C/c6ccco6)C(=O)C(C)(C)[C@@H]5CC[C@]43C)[C@@H]2C1    44.6
Cc1ccc(CSc2nc(-c3ccc(Cl)cc3)c(C#N)c(N3CCNCC3)n2)cc1    -10.6
O=S(=O)(Nc1ccc(I)cc1Cl)c1ccc(-c2cnc(C3CC3)o2)cc1    34.5
C=CCn1c(SCC(=O)Nc2ccc(C(=O)/C=C/c3ccc(Br)cc3)cc2)nnc1-c1c[nH]c2ccccc12    70.3
NC(=O)c1c(NC(=O)c2ccccc2C(F)(F)F)sc2c1CCC(=O)C2    27.2
CCn1c(SCC(=O)Nc2cccc(C(=O)/C=C/c3ccc(Br)cc3)c2)nc2ccccc2c1=O    74.3

Data origin, for the record: PubChem BioAssay (NCI)
